biological target: Adrenergic β2 (H292 cells) (Homo sapiens, UniProt P07550); construct: endogenous in cells; host or cells: H292 cells; test: Assay for Adrenergic β2 Mediated cAMP Production (concentration response, AlphaScreen cAMP detection); type: cell-based; details: cAMP production, 60 minutes at room temperature, 300 μM rolipram, read-out: β2 pEC50 (converted)
Sequence (P07550 whole entry): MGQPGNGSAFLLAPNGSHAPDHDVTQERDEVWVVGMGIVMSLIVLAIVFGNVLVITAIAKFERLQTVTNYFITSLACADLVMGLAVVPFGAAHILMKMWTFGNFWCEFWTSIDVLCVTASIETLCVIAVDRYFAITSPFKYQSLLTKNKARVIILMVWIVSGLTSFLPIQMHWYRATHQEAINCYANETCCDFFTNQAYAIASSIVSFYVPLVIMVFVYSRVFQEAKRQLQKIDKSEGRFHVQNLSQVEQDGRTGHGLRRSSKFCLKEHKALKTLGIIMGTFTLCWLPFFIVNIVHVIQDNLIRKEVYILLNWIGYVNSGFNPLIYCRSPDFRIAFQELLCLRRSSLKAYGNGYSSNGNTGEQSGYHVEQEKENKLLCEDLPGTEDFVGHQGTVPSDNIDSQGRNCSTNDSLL
Binary label based on EC50 with cut-off 8 nM: below gives YES, not below gives NO.

Worked set:
Challenge: Quick check: EC50 of Cc1sc(C(C)C)nc1C(=O)N1CCOC2(CCN(Cc3cccc(CCNC[C@H](O)c4ccc(O)c5[nH]c(=O)sc45)c3F)CC2)C1 [Example 69, ditrifluoroacetate] under 8 nM?
Response given: NO

Challenge: Does the reported EC50 of `O=C(c1ccc2cccnc2c1)N1CCOC2(CCN(Cc3cc(F)cc(CCNC[C@H](O)c4ccc(O)c5[nH]c(=O)sc45)c3)CC2)C1` stay below 8 nM?
Response given: YES

Challenge: Hello, I'm reviewing records and need to know if EC50 of CC(C)c1cc(C(=O)N2CCOC3(CCN(Cc4cccc(CCNC[C@H](O)c5ccc(O)c6[nH]c(=O)ccc56)c4)CC3)C2)cs1 [Example 83, ditrifluoroacetate] is below 8 nM. Could you check?
Response given: NO

---
Challenge: Below 8 nM on EC50? Entry Cc1nc(C(=O)N2CCOC3(CCN(Cc4cccc(CCOCCC(=O)N(CCNC[C@H](O)c5ccc(O)c6[nH]c(=O)sc56)C5CCCCC5)c4)CC3)C2)cs1 [Example 277, ditrifluoroacetate]
Response given: NO

* * *

molecular target: human muscarinic acetylcholine M3 receptor (M3-ACh) (Homo sapiens); construct: expressed in transfected cells; host or cells: CHO-K1 (Chinese Hamster Ovary) cell membranes; assay: Muscarinic 3 Receptor Binding Assay, % inhibition specific binding at 1 μM; details: 1 μM compound, % inhibition specific [3H]-NMS binding
Sequence (P20309 whole entry): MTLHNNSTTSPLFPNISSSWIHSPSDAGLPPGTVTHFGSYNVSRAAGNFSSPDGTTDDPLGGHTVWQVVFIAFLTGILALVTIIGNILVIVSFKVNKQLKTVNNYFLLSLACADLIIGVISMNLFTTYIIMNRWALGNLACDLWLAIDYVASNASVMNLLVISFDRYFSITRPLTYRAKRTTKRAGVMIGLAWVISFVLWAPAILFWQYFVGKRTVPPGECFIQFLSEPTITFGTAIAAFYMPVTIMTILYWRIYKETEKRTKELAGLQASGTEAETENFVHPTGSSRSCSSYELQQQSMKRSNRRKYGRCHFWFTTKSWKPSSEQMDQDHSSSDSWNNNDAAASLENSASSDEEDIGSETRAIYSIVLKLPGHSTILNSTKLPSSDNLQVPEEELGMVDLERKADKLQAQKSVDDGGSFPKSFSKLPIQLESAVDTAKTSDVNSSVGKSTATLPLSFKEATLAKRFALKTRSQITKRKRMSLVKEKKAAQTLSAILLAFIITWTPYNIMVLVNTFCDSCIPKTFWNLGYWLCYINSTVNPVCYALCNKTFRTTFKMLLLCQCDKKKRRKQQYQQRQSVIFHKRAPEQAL
reported_property: inhibition at 1 µM (%)
One number for each entry, in %.

List the reported inhibition at 1 µM of each molecule below.
1. O=C(N1CCOC2(CCN(Cc3cc(F)cc(CCNC[C@H](O)c4ccc(O)c5[nH]c(=O)sc45)c3)CC2)C1)C1(c2ccccc2)CCCC1 [Example 129]
2. O=C(Cn1c(C(F)(F)F)nc2ccccc21)N1CCOC2(CCN(Cc3cc(F)cc(CCNC[C@H](O)c4ccc(O)c5[nH]c(=O)sc45)c3)CC2)C1 [Example 177]
3. O=C(c1ccc2occc2c1)N1CCOC2(CCN(CCCCCCCCCNC[C@H](O)c3ccc(O)c4[nH]c(=O)sc34)CC2)C1 [Example 209]
4. Cc1n[nH]c(CC(=O)N2CCOC3(CCN(Cc4cc(F)cc(CCNC[C@H](O)c5ccc(O)c6[nH]c(=O)sc56)c4)CC3)C2)n1 [Example 134]
5. O=C([C@@H]1CCCO1)N1CCOC2(CCN(Cc3cc(F)cc(CCNC[C@H](O)c4ccc(O)c5[nH]c(=O)sc45)c3)CC2)C1 [Example 158]

Response given:
20
1
99
4
72

Respectfully, I request inhibition at 1 µM for each entry included below.
1. CC(C)c1cc(C(=O)N2CCOC3(CCN(CCOc4ccc(CNC[C@H](O)c5ccc(O)c6[nH]c(=O)sc56)cc4)CC3)C2)no1 [Example 255]
2. O=C(CCc1cccs1)N1CCOC2(CCN(CCCCCCCCCNC[C@H](O)c3ccc(O)c4[nH]c(=O)sc34)CC2)C1 [Example 207]
3. O=C(c1ccc(-c2cc[nH]n2)cc1)N1CCOC2(CCN(Cc3cc(F)cc(CCNC[C@H](O)c4ccc(O)c5[nH]c(=O)sc45)c3)CC2)C1 [Example 148]
4. Cc1cc(C(=O)N2CCOC3(CCN(CCCCCCCCCNC[C@H](O)c4ccc(O)c5[nH]c(=O)sc45)CC3)C2)oc1C [Example 195]
5. O=C(CCc1ccccc1)N1CCOC2(CCN(CCCCCCCCCNC[C@H](O)c3ccc(O)c4[nH]c(=O)sc34)CC2)C1 [Example 187]
6. O=C(c1ccc(-n2ccnc2)cc1)N1CCOC2(CCN(Cc3cc(F)cc(CCNC[C@H](O)c4ccc(O)c5[nH]c(=O)sc45)c3)CC2)C1 [Example 156]
7. O=C(Cc1cccs1)N1CCOC2(CCN(CCOc3ccc(CNC[C@H](O)c4ccc(O)c5[nH]c(=O)sc45)cc3)CC2)C1 [Example 226]
8. O=C(c1ccc2cc[nH]c2c1)N1CCOC2(CCN(Cc3cc(F)cc(CCNC[C@H](O)c4ccc(O)c5[nH]c(=O)sc45)c3)CC2)C1 [Example 140]

Response given:
1. 32
2. 94
3. 4
4. 88
5. 84
6. 3
7. 53
8. 76

I have 8 molecules here; please give me inhibition at 1 µM for each one.
1. O=C(COc1ccccc1)N1CCOC2(CCN(CCOc3ccc(CNC[C@H](O)c4ccc(O)c5[nH]c(=O)sc45)cc3)CC2)C1 [Example 240]
2. O=C(Cc1ccsc1)N1CCOC2(CCN(CCCCCCCCCNC[C@H](O)c3ccc(O)c4[nH]c(=O)sc34)CC2)C1 [Example 192]
3. CCCc1nc(C(=O)N2CCOC3(CCN(CCCCCCCCCNC[C@H](O)c4ccc(O)c5[nH]c(=O)sc45)CC3)C2)cs1 [Example 219]
4. O=C(Cc1ccccc1)N1CCOC2(CCN(CCCCCCCCCNC[C@H](O)c3ccc(O)c4[nH]c(=O)sc34)CC2)C1 [Example 186]
5. Cc1ccsc1C(=O)N1CCOC2(CCN(CCCCCCCCCNC[C@H](O)c3ccc(O)c4[nH]c(=O)sc34)CC2)C1 [Example 191]
6. O=C(c1csc(C2CCC2)n1)N1CCOC2(CCN(CCOc3ccc(CNC[C@H](O)c4ccc(O)c5[nH]c(=O)sc45)cc3)CC2)C1 [Example 261]
7. O=C(c1csc(C(F)(F)F)n1)N1CCOC2(CCN(CCCCCCCCCNC[C@H](O)c3ccc(O)c4[nH]c(=O)sc34)CC2)C1 [Example 217]
8. O=C(Cn1ccc2cccc(Cl)c21)N1CCOC2(CCN(Cc3cc(F)cc(CCNC[C@H](O)c4ccc(O)c5[nH]c(=O)sc45)c3)CC2)C1 [Example 168]

Response given:
34
96
99
95
94
90
100
29

Quick one: give me inhibition at 1 µM for each item below, same order please.
1. COc1ccc(OC)c(C(=O)N2CCOC3(CCN(Cc4cc(F)cc(CCNC[C@H](O)c5ccc(O)c6[nH]c(=O)sc56)c4)CC3)C2)c1 [Example 136]
2. O=C(Cc1ccsc1)N1CCOC2(CCN(Cc3cc(F)cc(CCNC[C@H](O)c4ccc(O)c5[nH]c(=O)sc45)c3)CC2)C1 [Example 126]
3. O=C(CCc1ccccc1)N1CCOC2(CCN(CCOc3ccc(CNC[C@H](O)c4ccc(O)c5[nH]c(=O)sc45)cc3)CC2)C1 [Example 228]

Response given:
1. 26
2. 50
3. 22

Challenge: Which inhibition at 1 µM is reported for this molecule? CCCc1nc(C(=O)N2CCOC3(CCN(CCOc4ccc(CNC[C@H](O)c5ccc(O)c6[nH]c(=O)sc56)cc4)CC3)C2)cs1 [Example 260]
Response given: 93
